Parameter: EC50 (nM), RSV microneutralization. Scope: all listed entries.
target: F protein of respiratory syncytial virus (RSV-Long strain), on infectious virus (respiratory syncytial virus (RSV-Long …, UniProt P12568 26-574)); assay: cell-based or functional assay
Write the number in nM without appending the unit.

Clone 8 (Fab) (Fab, V domains shown) VH: QVTLRESGPALVKPTQTLTLTCTFSGFSLSTAGMSVGWIRQPPGKALEWLADIWWDDKKDYNPSLKSRLTISKDTSKNQVVLKVTNMDPADTATYYCARDMITNFYFDVWGQGTTVTVSS VL: DIQMTQSPSTLSASVGDRVTITCSASSSVGYMHWYQQKPGKAPKLLIYDTFRLASGVPSRFSGSGSGTEFTLTISSLQPDDFATYYCFQGSGYPFTFGGGTKVEIK: 2.67
Clone 5 (Fab) (Fab, V domains shown) VH: QVTLRESGPALVKPTQTLTLTCTFSGFSLSTAGMSVGWIRQPPGKALEWLADIWWDDKKDYNPSLKSRLTISKDTSKNQVVLKVTNMDPADTATYYCARDMITNFYFDVWGQGTTVTVSS VL: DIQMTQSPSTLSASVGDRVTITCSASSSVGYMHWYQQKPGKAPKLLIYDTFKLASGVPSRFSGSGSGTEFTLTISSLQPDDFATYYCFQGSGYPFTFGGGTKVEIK: 2.61
Clone 10 (Fab) (Fab, V domains shown) VH: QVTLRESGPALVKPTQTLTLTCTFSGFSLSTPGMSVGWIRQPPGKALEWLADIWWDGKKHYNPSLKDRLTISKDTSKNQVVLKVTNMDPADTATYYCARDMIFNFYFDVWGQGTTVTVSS VL: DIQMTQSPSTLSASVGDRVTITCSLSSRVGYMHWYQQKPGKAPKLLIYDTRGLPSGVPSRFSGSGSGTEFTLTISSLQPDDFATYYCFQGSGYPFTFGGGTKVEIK: 1.06
Reference clone (Fab fragment with the sequences of FIG. 2 and the CDRs of Table 1) (Fab, V domains shown, also called basic structure) VH: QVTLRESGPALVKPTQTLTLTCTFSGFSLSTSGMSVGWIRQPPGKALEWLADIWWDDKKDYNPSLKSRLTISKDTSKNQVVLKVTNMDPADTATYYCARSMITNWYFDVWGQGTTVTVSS VL: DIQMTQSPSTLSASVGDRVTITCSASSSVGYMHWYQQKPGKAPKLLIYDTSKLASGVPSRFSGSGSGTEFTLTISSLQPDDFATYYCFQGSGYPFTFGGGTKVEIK: 3.52
Clone 13 (Fab) (Fab, V domains shown) VH: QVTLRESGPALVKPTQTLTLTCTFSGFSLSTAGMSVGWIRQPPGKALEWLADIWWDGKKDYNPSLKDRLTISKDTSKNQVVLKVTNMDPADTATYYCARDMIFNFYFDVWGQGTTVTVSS VL: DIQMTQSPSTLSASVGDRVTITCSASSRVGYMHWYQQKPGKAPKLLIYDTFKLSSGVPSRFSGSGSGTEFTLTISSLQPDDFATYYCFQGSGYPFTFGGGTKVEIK: 0.81

Form field EC50 (nM), RSV microneutralization, entry Clone 9 (Fab) (Fab, V domains shown) VH: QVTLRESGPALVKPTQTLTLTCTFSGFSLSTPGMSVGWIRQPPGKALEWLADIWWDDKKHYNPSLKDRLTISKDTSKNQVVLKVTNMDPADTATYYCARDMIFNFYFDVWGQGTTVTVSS VL: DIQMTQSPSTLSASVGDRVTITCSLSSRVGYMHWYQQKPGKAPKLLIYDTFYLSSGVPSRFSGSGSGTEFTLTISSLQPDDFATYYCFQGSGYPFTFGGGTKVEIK : 0.29

Record Clone 3 (Fab) (Fab, V domains shown) VH: QVTLRESGPALVKPTQTLTLTCTFSGFSLSTAGMSVGWIRQPPGKALEWLADIWWDDKKDYNPSLKSRLTISKDTSKNQVVLKVTNMDPADTATYYCARDMIFNWYFDVWGQGTTVTVSS VL: DIQMTQSPSTLSASVGDRVTITCSASSSVGYMHWYQQKPGKAPKLLIYDTYKQTSGVPSRFSGSGSGTEFTLTISSLQPDDFATYYCFQGSGYPFTFGGGTKVEIK . Reported EC50 (nM), RSV microneutralization: 4.7

Sample Clone 1 (Fab) (Fab, V domains shown) VH: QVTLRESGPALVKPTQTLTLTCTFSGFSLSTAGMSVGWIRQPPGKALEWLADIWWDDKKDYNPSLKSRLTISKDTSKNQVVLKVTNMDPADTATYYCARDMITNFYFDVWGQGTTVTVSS VL: DIQMTQSPSTLSASVGDRVTITCSASSSVGYMHWYQQKPGKAPKLLIYDTFKLTSGVPSRFSGSGSGTEFTLTISSLQPDDFATYYCFQGSGYPFTFGGGTKVEIK ; EC50 (nM), RSV microneutralization observed: 2.26

Looking up Clone 6 (Fab) (Fab, V domains shown) VH: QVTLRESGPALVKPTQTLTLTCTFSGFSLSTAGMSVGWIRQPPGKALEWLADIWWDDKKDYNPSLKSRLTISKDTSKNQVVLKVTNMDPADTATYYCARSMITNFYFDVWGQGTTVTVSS VL: DIQMTQSPSTLSASVGDRVTITCSASSSVGYMHWYQQKPGKAPKLLIYDTFKLASGVPSRFSGSGSGTEFTLTISSLQPDDFATYYCFQGSFYPFTFGGGTKVEIK , I found its EC50 (nM), RSV microneutralization recorded as 2.88

Lab note: measured EC50 (nM), RSV microneutralization of Clone 15 (Fab) (Fab, V domains shown) VH: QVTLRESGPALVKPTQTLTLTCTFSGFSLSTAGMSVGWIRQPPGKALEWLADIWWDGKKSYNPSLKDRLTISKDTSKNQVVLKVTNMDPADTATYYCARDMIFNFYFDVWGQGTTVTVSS VL: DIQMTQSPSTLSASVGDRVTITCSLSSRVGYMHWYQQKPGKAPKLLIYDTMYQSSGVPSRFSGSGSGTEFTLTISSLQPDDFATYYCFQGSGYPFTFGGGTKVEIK was 0.56
